As shown below, each of these compounds has a reported viability value.
experiment: viability of HCT116 without oncogenic beta-catenin – human colon tumor cells, pilot screen (AID 823); conditions: HCT116 beta-catenin knockout viability, CellTiter-Glo, 60 h; at 10 µM; stronger effect = lower value;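 also: 0% = wells killed by 20 µM Hyamine and 100% = untreated DMSO cell wells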
Records with an inconclusive call do not appear.
// return numeric value only (unit: %, not printed)

Study these solved cases before continuing.
Cc1cc(C)nc(/N=C2\NC(=O)CC(C(=O)O)N2c2ccc(Cl)cc2)n1 (stereo not given)	99.5
CCCCN(C)C(=O)c1cn(C)c2ccc(S(=O)(=O)N(C)C)cc2c1=O	100
COc1cc2c(cc1OC)CN(Cc1cccs1)CC2	86.4
COc1ccc(CNC(=O)c2ccc(CN3CCOCC3)cc2)cc1	96.4
CC(=O)c1c(C)cc(C)c(CSc2nc(C)cc(=O)[nH]2)c1C	83
CCOC(=O)c1c(C)c(C(=O)O)n(C)c1C	99.5
O=C(c1cccc(F)c1)N1CCc2ccccc21	86.3
COc1cccc(C2=NOC(C(=O)N3CCc4ccccc4C3)C2)c1 (stereo not given)	104
CCCCNC(=O)CCCn1c(=O)[nH]c2ccc(Br)cc2c1=O	97.9
CC(C)OCCCNC(=O)c1ccc2c(c1)ncn2C1CCCC1	102

Entry `O=C(Cn1nc(Cc2ccncc2)c2ccccc2c1=O)N1CCN(C(=O)c2ccco2)CC1` ; viability = 106

Entry O=P(O)(CN1CCCCC1)C1CCCCC1O (stereo not given) ; viability = 105

Entry `COc1ccccc1CC(=O)Nc1ccc(OC)c(OC)c1` ; viability = 101

Entry `Cc1ccc(S(=O)(=O)NCCOC(=O)Nc2sc(=S)n(C)c2C)cc1` ; viability = 115

Entry `COc1ccc(N(C)C(=O)CCS(=O)(=O)c2cccc3nonc23)c(OC)c1` ; viability = 100

###

As shown below, each of these molecules has a reported growth inhibition value.
assay: S. cerevisiae growth inhibition in restrictive medium, OD615, pilot screen, restrictive growth control, yeast lifespan reduction project (AID 706); conditions: OD615, 48 h, at 10 µM, stronger effect = higher value;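 also: modified DeaD lifespan yeast strain shifted to restrictive glucose medium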
// return numeric value only (unit: %, not printed)

Study these solved cases before continuing.
Cn1c(=O)[nH]c(=O)c2[nH]c(CN3CCN(Cc4ccccc4)CC3)nc21	-10
Cc1cc(C)nc(SCC(=O)OCN2C(=O)c3ccccc3C2=O)n1	-18.3
Cc1cc2cc(CNC(=O)c3ccco3)ccc2n1C	-15.6
O=C1CC(Nc2ccc(N3CCOCC3)cc2)C(=O)N1c1cccc(C(F)(F)F)c1 (stereo unspecified)	-14.4
Cc1c(C)n(C)c2ccc(C(=O)NCc3cccs3)cc12	1.59

Entry `CC(=O)NCCc1ccc(S(=O)(=O)N2CCCC2)cc1` ; growth inhibition = 1.21

Entry Cc1ccc(NC(=O)C(C)N2CCOCC2)c(C(=O)c2ccccc2)c1 (stereo unspecified) ; growth inhibition = -12.7

Entry O=C(O)C1C2C=CC3(CN(C4CCCC4)C(=O)C13)O2 (stereo unspecified) ; growth inhibition = 2.54

Entry `COCCn1c(=O)[nH]c2cc(C(=O)NCCCN3CCN(c4ccc(F)cc4)CC3)ccc2c1=O` ; growth inhibition = -0.415

Entry CCN(CC)C(=O)C1CCCc2c1[nH]c1ccc(Cl)cc21 (stereo unspecified) ; growth inhibition = -4.67

Entry `COc1ccccc1NC(=O)CSc1nnc(Cc2cccn2C)n1-c1ccc(F)cc1` ; growth inhibition = 10.8

Entry CCc1ccc(N2CC34C=CC(O3)C(C(=O)OC)C4C2=O)cc1 (stereo unspecified) ; growth inhibition = 3.24

Entry `O=C(CN1CCN(Cc2ccc(F)cc2)C1=O)NCc1cccs1` ; growth inhibition = -1.7

Entry `CCC(=O)N1CCN(c2nc(-c3ccccc3)c3c(c2C#N)CCCC3)CC1` ; growth inhibition = -4.34

Entry Cc1cc(N2CCOCC2)nc2ccc(NC(=O)C3CCC(C)CC3)cc12 (stereo unspecified) ; growth inhibition = 0.545

Entry CC(NC(=O)c1cc2c(=O)n(C)c3ccccc3c2n1C)c1ccc2c(c1)OCCO2 (stereo unspecified) ; growth inhibition = -1.51

Entry CC1CCCC(N2CCN(C(=O)c3ccc(F)cc3)CC2)C1 (stereo unspecified) ; growth inhibition = -4.36

Entry CCC(C)NC(=O)CS(=O)(=O)Cc1nc(-c2cccc(OC)c2)oc1C (stereo unspecified) ; growth inhibition = 9.5

Entry `O=C(Nc1ccc2c(c1)OCCO2)c1cnc2n(c1=O)CCS2` ; growth inhibition = 2.96

Entry `C=CCn1c(COc2ccc(CC)cc2)nnc1SC/C(O)=C(\C#N)c1nc2ccccc2[nH]1` ; growth inhibition = 0.59

###

As shown below, each of these compounds has a reported viability value.
experiment: Her2 expression decrease, cell viability multiplex – SKBR3 breast tumor cells, AlphaScreen, ATP viability, primary screen (AID 461); conditions: SKBR3 Her2 protein level, 18-24 h, measured here: SKBR3 viability, ATP luminescence, at 10 µM;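 also: percent of carrier control wells set as 100% viability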
// return numeric value only (unit: %, not printed)

Study these solved cases before continuing.
CC1=C(C(=O)OC2CCCC2)C(c2ccc(C)o2)C2=C(CC(c3cccs3)CC2=O)N1 (configuration not stated)	148
O=C(CSc1nnc(Cn2c(=O)sc3ccccc32)n1-c1ccccc1)Nc1nccs1	97
CN1CCN(c2nc3c(c(=O)[nH]c(=O)n3C)n2CCSc2nc3ccccc3s2)CC1	87
Cc1cccc(C(=O)N2CCN(C(=O)c3cccc(C)c3)C(C)C2)c1 (configuration not stated)	110
CC1CCN(Cc2nc3c(c(=O)n(C)c(=O)n3C)n2Cc2cccc3ccccc23)CC1	84
COc1ccc(NC(=O)C2CCCN2S(=O)(=O)c2cccc3cccnc23)c(OC)c1 (configuration not stated)	96

Shift focus to the following entry.
Entry `COc1ccc(-n2c(Cc3cccn3C)nnc2SCC(N)=O)cc1` ; viability = 94.5

###

test: S. cerevisiae growth inhibition in permissive medium (OD615), pilot counter-assay for S. cerevisiae lifespan shortening project, permissive growth control (AID 705); conditions: OD615, 24 h, at 10 µM, stronger effect = higher value
Endpoint: growth inhibition (%)
// return numeric value only (unit: %, not printed)

CN1CCC(NC(=O)c2cccs2)CC1	9.33
COC(=O)C(C)Sc1nc2c(c(=O)n1-c1ccccc1)SCC2 (stereo unspecified)	-12.1
CC1CCc2nn(CC(=O)NCc3ccc4c(c3)OCO4)cc2C1 (stereo unspecified)	-0.315

Entry `CC(C)N(C(=O)CSc1nc2c([nH]1)c(=O)n(C)c(=O)n2C)c1ccccc1` ; growth inhibition = -4.33

Entry `COCCNC(=O)c1cc(-c2ccccc2OC)on1` ; growth inhibition = 5.14

Entry `CCOc1ccccc1N(CC(=O)N1CCCCCC1)S(C)(=O)=O` ; growth inhibition = -4.37

Entry `COc1ccc(OC)c(NC(=O)Cn2cnc3c(cnn3-c3ccccc3)c2=O)c1` ; growth inhibition = 3.69

Entry CCOC(=O)C1CCN(S(=O)(=O)c2cc(Br)cc3c2N(C(C)=O)C(C)C3)CC1 (stereo unspecified) ; growth inhibition = -11.1

Entry `CCCn1c(NCc2cc(C)ccc2O)nc2ccccc21` ; growth inhibition = -4.45

Entry O=C(OCCN=C1NS(=O)(=O)c2ccccc21)C1CC(=O)N(c2ccc(Cl)cc2)C1 (stereo unspecified) ; growth inhibition = 6.61

Entry `COc1ccc(OC)c2[nH]c(=O)c(CCNC(=O)C(C)C)cc12` ; growth inhibition = -3.17

Entry `COc1cc(-c2nc(-c3ccncc3)no2)cc(OC)c1OC` ; growth inhibition = -1.17

###

As shown below, each of these compounds has a reported differential viability (reversal) value.
test: MRP1 drug-resistance reversers in H69AR cells – cell-based, doxorubicin co-treatment, pilot screen (AID 601); details: H69AR cells + 2 uM doxorubicin, CellTiter-Glo, 72 h; at 10 µM; stronger effect = higher value
// return numeric value only (unit: %, not printed)

Study these solved cases before continuing.
CC(C)NC(=O)c1ccc2c(c1)nnn2C	0.56
Cn1c(=O)[nH]c(=O)c2c1nc(N1CCCCC1)n2CCSc1ncccn1	-3.65
CCOC(=O)c1sc2nc(NC(=O)C(C)(C)C)sc2c1C	11.9
FC(F)(F)COc1nc(N2CCCCC2)nc(N2CCNCC2)n1	15

Entry `CCOC(=O)N1CCC(Nc2nc3ccccc3n3cnnc23)CC1` ; differential viability (reversal) = 5.21

Entry `Cc1nnc(SCC(=O)Nc2sc3c(c2C#N)CCCC3)[nH]c1=O` ; differential viability (reversal) = 4.41

Entry `O=C(CCNS(=O)(=O)c1cccs1)Nc1ccccc1F` ; differential viability (reversal) = 8.57

###

assay: HUVEC growth inhibition – cell-based, human, primary screen (AID 575); conditions: HUVEC proliferation, CellTiter-Glo luminescence, 72 h; at 10 µM; stronger effect = lower value;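 also: 100% = median of untreated cell wells with 0.1% DMSO on each plate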
Endpoint: viability (%)
// return numeric value only (unit: %, not printed)

Study these solved cases before continuing.
c1ccc(-c2nnc(SCc3nc4ccccc4[nH]3)o2)cc1	98.9
O=C(c1ccc(Br)o1)N(Cc1ccccc1)c1ccccn1	99.6
COc1ccc(-c2nc(CSCC(=O)N3CCN(c4cccc(C)c4)C(C)C3)c(C)o2)cc1OC (stereo not drawn)	54.6
Cc1cc(C)cc(N2C(=O)CC(N3CCOCC3)C2=O)c1 (stereo not drawn)	100
CC(C)CCNC(=O)Cn1c(NCCC(C)C)nc2c1c(=O)n(C)c(=O)n2C	102

Shift focus to the following entry.
Entry `CCN1CCN(C(=O)Cn2ncc3ccsc3c2=O)CC1` ; viability = 89.8
